# System: Staphylococcus aureus
# protocol summary: Antimicrobial activity against Staphylococcus aureus ATCC 25923 assessed as inhibition of visible growth measured after 20 to 24 hrs incubation by CLSI method
# Format: functional
# test context: time 20-24 hrs
observation type: MIC (µg/mL)
Write down the numeric answer in µg/mL and omit the unit.

These solved cases illustrate the format of a correct answer.
>>> recorded_value("O=C(O)c1ccc(-n2cc(CNc3ccc(F)c(Cl)c3)c(-c3cccc(F)c3)n2)cc1")
16
>>> recorded_value("O=C(O)c1ccc(-n2cc(CNc3ccc(Br)c(C(F)(F)F)c3)c(-c3ccc(F)c(F)c3)n2)cc1")
0.5
>>> recorded_value("O=C(O)c1ccc(-n2cc(CNc3ccc(Br)c(Cl)c3)c(-c3ccc(F)c(F)c3)n2)cc1")
1
>>> recorded_value("O=C(O)c1ccc(-n2cc(CNc3cc(C(F)(F)F)cc(C(F)(F)F)c3)c(-c3cccc(F)c3)n2)cc1")
2
>>> recorded_value("O=C(O)c1ccc(-n2cc(CNc3cc(F)cc(C(F)(F)F)c3)c(-c3ccc(F)cc3)n2)cc1")
2
>>> recorded_value("O=C(O)c1ccc(-n2cc(CNc3cc(Cl)cc(C(F)(F)F)c3)c(-c3ccc(F)c(F)c3)n2)cc1")
1

# input Consider the molecule shown here: O=C(O)c1ccc(-n2cc(CNc3cc(F)c(F)c(F)c3)c(-c3ccc(F)c(F)c3)n2)cc1 What is its recorded MIC?
# output 8

# input Consider the molecule shown here: Cc1cc(NCc2cn(-c3ccc(C(=O)O)cc3)nc2-c2ccc(F)cc2)ccc1F What is its recorded MIC?
# output 16

# input Consider the molecule shown here: O=C(O)c1ccc(-n2cc(CNc3ccccc3)c(-c3ccc(F)c(F)c3)n2)cc1 What is its recorded MIC?
# output 16

# input Consider the molecule shown here: O=C(O)c1ccc(-n2cc(CNc3cc(Cl)cc(Cl)c3)c(-c3cccc(F)c3)n2)cc1 What is its recorded MIC?
# output 2

# input Consider the molecule shown here: O=C(O)c1ccc(-n2cc(CNc3cccc(C(F)(F)F)c3)c(-c3ccc(F)c(F)c3)n2)cc1 What is its recorded MIC?
# output 4

# input Consider the molecule shown here: O=C(O)c1ccc(-n2cc(CNc3cccc(C(F)(F)F)c3)c(-c3ccc(F)cc3)n2)cc1 What is its recorded MIC?
# output 8

# input Consider the molecule shown here: O=C(O)c1ccc(-n2cc(CNc3cccc(Br)c3)c(-c3ccc(F)cc3)n2)cc1 What is its recorded MIC?
# output 8

# input Consider the molecule shown here: O=C(O)c1ccc(-n2cc(CNc3cc(Cl)cc(Cl)c3)c(-c3ccc(F)cc3)n2)cc1 What is its recorded MIC?
# output 1

# input Consider the molecule shown here: O=C(O)c1ccc(-n2cc(CNc3ccccc3)c(-c3ccc(F)cc3)n2)cc1 What is its recorded MIC?
# output 32

====

# Tested on: Staphylococcus aureus
# protocol summary: In vivo antimicrobial activity against Staphylococcus aureus UAMS-1 infected in Caenorhabditis elegans AU37 nematodes assessed as viability of nematodes incubated for 5 days by susceptibility test
# Format: functional
# test context: UAMS-1, 120 h, time 5 day
observation type: MIC (µg/mL)
Write down the numeric answer in µg/mL and omit the unit.

These solved cases illustrate the format of a correct answer.
>>> recorded_value("O=C(O)c1ccc(-n2cc(CNc3ccc(Br)c(C(F)(F)F)c3)c(-c3cccc(F)c3)n2)cc1")
1
>>> recorded_value("O=C(O)c1ccc(-n2cc(CNc3cc(Cl)c(F)c(Cl)c3)c(-c3cccc(F)c3)n2)cc1")
1
>>> recorded_value("O=C(O)c1ccc(-n2cc(CNc3ccc(Br)c(Cl)c3)c(-c3ccc(F)cc3)n2)cc1")
2

# input Consider the compound shown here: O=C(O)c1ccc(-n2cc(CNc3ccc(Cl)c(C(F)(F)F)c3)c(-c3cccc(F)c3)n2)cc1 What is its recorded MIC?
# output 1

Source listed as ChEMBL document CHEMBL5365500.
